Every entry's value here was drawn from patent US20080207641A1.

test: Pharmacokinetic profile / oral bioavailability in male SD rats; assay type: in vivo; conditions: rat, plasma, PO, 50 mg/kg, 0.5% MC
measurement_type: AUC(0-inf)

>>> result("CC1=C(c2ccc(NC(=O)c3ccncc3F)cc2)CN(c2nccs2)CC1.Cl.Cl")
"351 µM·h"

----------
Water Solubility by entry:
test: Solubility of salts (water solubility); assay type: physicochemical; settings: salts of the parent compound
measurement_type: Water Solubility (µg/mL)

>>> readout_number("CC1=C(c2ccc(NC(=O)c3ccncc3F)cc2)CN(c2nccs2)CC1 [Citrate]")
1190
>>> readout_number("CC1=C(c2ccc(NC(=O)c3ccncc3F)cc2)CN(c2nccs2)CC1 [Compound H2SO4]")
12690
>>> readout_number("CC1=C(c2ccc(NC(=O)c3ccncc3F)cc2)CN(c2nccs2)CC1 [Tartrate]")
1340
>>> readout_number("CC1=C(c2ccc(NC(=O)c3ccncc3F)cc2)CN(c2nccs2)CC1 [HBr]")
11560
>>> readout_number("CC1=C(c2ccc(NC(=O)c3ccncc3F)cc2)CN(c2nccs2)CC1 [Succinate]")
360

----------
experiment: Pharmacokinetic profile / oral bioavailability in male SD rats; assay type: in vivo; conditions: rat, plasma, IV, 5 mg/kg, DRD formulation
measurement_type: Tmax (min)

>>> readout_number("CC1=C(c2ccc(NC(=O)c3ccncc3F)cc2)CN(c2nccs2)CC1.Cl.Cl")
4.98

----------
assay: Solubility in simulated gastric fluids; type: physicochemical; conditions: simulated gastric fluid
measurement_type: solubility (µM)

>>> readout_number("CC1=C(c2ccc(NC(=O)c3ccccc3F)nc2)CN(c2nnn(C)n2)CC1")
50
>>> readout_number("CC1=C(c2ccc(NC(=O)c3c(Cl)cccc3Cl)cc2)CN(c2nccs2)CC1")
50
>>> readout_number("CC(C)=CC(=O)Nc1ccc(C2=C(C)CCN(c3nnn(C)n3)C2)cn1")
50
>>> readout_number("CC1=C(c2cnc(NC(=O)c3ccc(F)cc3F)cn2)CN(c2nnn(C)n2)CC1")
50
>>> readout_number("CC1=C(c2cnc(NC(=O)c3c(F)cncc3F)cn2)CN(c2nccs2)CC1.Cl")
25
>>> readout_number("O=C(Nc1ccc(C2=C(Cl)CCN(c3nccs3)C2)cn1)c1c(F)cccc1F")
100
>>> readout_number("CC1=C(c2cnc(NC(=O)c3c(F)cccc3F)cn2)CN(c2nnn(C)n2)CC1")
50
>>> readout_number("CC1=C(c2cnc(NC(=O)c3ccccc3F)cn2)CN(c2nccs2)CC1")
25
>>> readout_number("CC1=C(c2cnc(NC(=O)c3c(F)cccc3Cl)cn2)CN(c2nnn(C)n2)CC1")
25
>>> readout_number("CC1=C(c2ccc(NC(=O)c3c(F)cccc3Cl)nc2)CN(c2nnn(C)n2)CC1")
25
>>> readout_number("CC1=C(c2ccc(NC(=O)c3ccccc3F)cc2)CN(c2nccs2)CC1")
50
>>> readout_number("CC1=C(c2ccc(NC(=O)c3c(F)cccc3F)nc2)CN(c2nnn(C)n2)CC1")
50
>>> readout_number("CC1=C(c2ccc(NCc3c(F)cccc3F)nc2)CN(c2nccs2)CC1.Cl.Cl")
100
>>> readout_number("CC1=C(c2ccc(NC(=O)c3c(O)cccc3F)cc2)CN(c2nccs2)CC1")
50
>>> readout_number("Cn1nnc(N2CCC(Cl)=C(c3ccc(NC(=O)c4c(F)cccc4F)nc3)C2)n1")
50
>>> readout_number("CC1=C(c2ccc(NCc3c(F)cccc3F)cc2)CN(c2nccs2)CC1")
50
>>> readout_number("CC1=C(c2ccc(NC(=O)c3c(F)cccc3F)cn2)CN(c2nccs2)CC1")
100
>>> readout_number("CC1=C(c2cnc(NC(=O)c3ccncc3F)cn2)CN(c2nccs2)CC1")
50
